Experimental Protocol: GHS categories as the set defines them, by LD50: 1 up to 5, 2 up to 50, 3 up to 300, 4 up to 2000, 5 above 2000 mg/kg
Condition Info: rat; in vivo; po
Readout Type: GHS category
Numbers only.

For each entry beneath this line, provide reported GHS category.
1. COc1nc(C)nc(=NC(O)=NS(=O)(=O)c2ccccc2C(=O)O)[nH]1
2. CC(C)OC(=O)c1cc(C(=O)OC(C)C)cc([N+](=O)[O-])c1
3. Fc1ccccc1C1c2ccccc2CCN1c1cccc(C(F)(F)F)c1 (stereo unspecified)
4. CNC(=O)C(=NNc1ccccc1[N+](=O)[O-])C(C)=O
5. COC(C)CCO (stereo unspecified)
6. N[C@@H]1CONC1=O
7. CCC(C(=O)Oc1ccccc1OC)c1ccc(-c2ccccc2)cc1 (stereo unspecified)

Response given:
5
5
4
5
5
5
5

For each entry beneath this line, provide reported GHS category.
1. CC(C)(C)N(Sc1nc2ccccc2s1)Sc1nc2ccccc2s1
2. COc1ccccc1C1NC(=O)C(C)S1 (stereo unspecified)
3. CCOc1ccccc1C(=N)N
4. Cc1ccc(C(=O)O)c(Oc2ccccc2CC(=O)O)c1C
5. CC(C)=CC(C)(C)CC(C)(C)C
6. CCC(=O)O[C@]1(C(=O)COC(C)=O)CC[C@H]2[C@@H]3C[C@H](C)C4=CC(=O)C=C[C@]4(C)[C@H]3[C@@H](O)C[C@@]21C
7. Nc1nc(C2CC2)nc(C(=O)O)c1Cl
8. O=S(=O)(O)CCN1CCN(CCO)CC1

Response given:
1: 5; 2: 5; 3: 4; 4: 5; 5: 5; 6: 5; 7: 5; 8: 5

For each entry beneath this line, provide reported GHS category.
1. CC(=O)Nc1ccc(S(=O)(=O)O)c2cc(S(=O)(=O)O)c(/N=N/c3ccc(/N=N/c4ccc(S(=O)(=O)O)cc4)c4ccc(S(=O)(=O)O)cc34)c(O)c12
2. CC(C)(C)OOC(C)(C)c1cccc(C(C)(C)OOC(C)(C)C)c1
3. Nc1nccnc1C(=O)O
4. CCOc1ccc(C(C)(C)COCc2cccc(Oc3ccccc3)c2)cc1

Response given:
1: 5; 2: 5; 3: 5; 4: 5

For each entry beneath this line, provide reported GHS category.
1. Cc1ccc2nc(-c3ccc(N)cc3)sc2c1S(=O)(=O)O
2. Cn1cc(C(=O)O)c(C(F)F)n1
3. CCN(CCOC(C)=O)c1ccc(N=Nc2nc3ccc(Cl)cc3s2)cc1
4. O=C(c1ccc(F)cc1)c1cc(I)ccc1Cl

Response given:
5
5
5
5

For each entry beneath this line, provide reported GHS category.
1. O=CN(O)CCCP(=O)(O)O
2. CNC(=O)C(=NNc1ccc(Cl)cc1)C(C)=O
3. Cc1ccc(Nc2ccc(Nc3ccc(C)cc3S(=O)(=O)O)c3c2C(=O)c2ccccc2C3=O)c(S(=O)(=O)O)c1
4. CC(C)(C)c1cc(CCC(=O)NCCCCCCNC(=O)CCc2cc(C(C)(C)C)c(O)c(C(C)(C)C)c2)cc(C(C)(C)C)c1O
5. CCN(C)c1cc(=O)c2c(ccc3ccccc32)o1

Response given:
1. 5
2. 5
3. 5
4. 5
5. 4

For each entry beneath this line, provide reported GHS category.
1. CN(C)[C@@H]1C(O)=C(C(N)=O)C(=O)[C@@]2(O)C(O)=C3C(=O)c4c(O)ccc(Cl)c4[C@@H](O)[C@H]3C[C@@H]12
2. CC(C)CCCCCCCCCCCCCCC(=O)OC(C)C

Response given:
1. 5
2. 5

For each entry beneath this line, provide reported GHS category.
1. CCC(=O)OCC(C)(C)OC(C)C1CCCC(C)(C)C1 (stereo unspecified)
2. Nc1nnc(-c2cc(Cl)ccc2Cl)c(N)n1
3. Cc1cccc2ncc(C(=O)NC3CC3)c(=O)n12

Response given:
1. 5
2. 4
3. 3

For each entry beneath this line, provide reported GHS category.
1. CCCCCCCCCCOC
2. CC(C)OP(=O)(O)Oc1ccccc1
3. NCCCC[C@H](OP(=O)(O)CCCCc1ccccc1)C(=O)N1CCC[C@H]1C(=O)O
4. C[C@]12CC[C@H]3[C@@H](CC[C@@]45O[C@@H]4C(O)=C(C#N)C[C@]35C)[C@@H]1CC[C@@H]2O
5. CCn1cc(C(=O)O)c(=O)c2cnc(N3CCNCC3)nc21
6. Oc1cn2c(n1)Nc1ccc(Cl)c(Cl)c1C2

Response given:
[5, 5, 5, 5, 5, 4]
